target entity: T1, hROR2-Fc (human ROR2 Fc fusion protein) (human, UniProt Q01974 34-403, limits assumed)
T1 construct: Given both as hROR2-Fc and as Fc-hROR2, so the order of the two parts is not certain; also called Fc-hROR2; not shown: human Fc part (captured by a mouse anti-human IgG CH2 / Fcγ mAb)
protocol description: SPR (Biacore X100), Fc-hROR2 captured on CM5 chip via mouse anti-human Fcγ mAb, Fab as analyte, 1:1 binding model
measure name: koff
Entry format: amount then unit.

Query :: // koff lookup, key: XBR2-401-X3.12 Fab (affinity matured chimeric rabbit/human Fab) (Fab, V domains shown, Chimeric rabbit/human Fab) VH: QSVKESEGGLFKPTDTLTLTCTVSGFSLSSYGVTWVRQAPGSGLEWIGYINTAGNTYYASWAKSRSTITRNTNENTVTLKMTSLTAADTATYFCARDDRWSLNIWGPGTLVTVSS VL: DPMLTQTPSSTSTAVGDTVTIKCQASQSISSDLSWYQQKPGQRPKLLIYQASTLASGVPSRFKGSGYGTEYTLTISGVQREDAAIYYCLGGYADASYRTAFGGGTKLEIK
Result :: 3.3e-05 s⁻¹

Query :: Can you check X4.35 (Fab, V domains shown, one of the top 12 chimeric rabbit/human anti-human ROR2 Fabs selected from the focused HCDR3 mutagenesis library) VH: QSVKESEGGLFKPTDTLTLTCTVSGFSLSSYGVTWVRQAPGSGLEWIGYINTAGNTYYASWAKSRSTITRNTNENTVTLKMTSLTAADTATYFCARDSRRKSLNIWGPGTLVTVSS VL: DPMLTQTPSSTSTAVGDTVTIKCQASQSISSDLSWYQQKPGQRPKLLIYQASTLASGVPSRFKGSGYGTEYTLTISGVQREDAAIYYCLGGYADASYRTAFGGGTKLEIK next?
Result :: 0.0017 s⁻¹

Query :: X4.3 (Fab, V domains shown, one of the top 12 chimeric rabbit/human anti-human ROR2 Fabs selected from the focused HCDR3 mutagenesis library) VH: QSVKESEGGLFKPTDTLTLTCTVSGFSLSSYGVTWVRQAPGSGLEWIGYINTAGNTYYASWAKSRSTITRNTNENTVTLKMTSLTAADTATYFCARDWGNWSLNIWGPGTLVTVSS VL: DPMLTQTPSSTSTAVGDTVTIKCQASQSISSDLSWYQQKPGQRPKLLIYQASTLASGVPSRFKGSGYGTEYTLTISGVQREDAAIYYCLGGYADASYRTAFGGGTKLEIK , same question.
Result :: 3.8e-05 s⁻¹

Query :: # iterate: X3.13 (Fab, V domains shown, one of the top 12 chimeric rabbit/human anti-human ROR2 Fabs selected from the focused HCDR3 mutagenesis library) VH: QSVKESEGGLFKPTDTLTLTCTVSGFSLSSYGVTWVRQAPGSGLEWIGYINTAGNTYYASWAKSRSTITRNTNENTVTLKMTSLTAADTATYFCARDKGWSLNIWGPGTLVTVSS VL: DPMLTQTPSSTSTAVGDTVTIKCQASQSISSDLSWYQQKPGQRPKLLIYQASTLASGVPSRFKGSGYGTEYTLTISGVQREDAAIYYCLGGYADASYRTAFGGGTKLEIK
Result :: 2.7e-05 s⁻¹

Query :: What about this binder? X3.6 (Fab, V domains shown, one of the top 12 chimeric rabbit/human anti-human ROR2 Fabs selected from the focused HCDR3 mutagenesis library) VH: QSVKESEGGLFKPTDTLTLTCTVSGFSLSSYGVTWVRQAPGSGLEWIGYINTAGNTYYASWAKSRSTITRNTNENTVTLKMTSLTAADTATYFCARDSRNSLNIWGPGTLVTVSS VL: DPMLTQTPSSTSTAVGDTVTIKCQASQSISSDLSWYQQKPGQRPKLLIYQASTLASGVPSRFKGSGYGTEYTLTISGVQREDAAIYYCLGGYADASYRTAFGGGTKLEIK
Result :: 0.00019 s⁻¹

Query :: # repeat for X4.21 (Fab, V domains shown, one of the top 12 chimeric rabbit/human anti-human ROR2 Fabs selected from the focused HCDR3 mutagenesis library) VH: QSVKESEGGLFKPTDTLTLTCTVSGFSLSSYGVTWVRQAPGSGLEWIGYINTAGNTYYASWAKSRSTITRNTNENTVTLKMTSLTAADTATYFCARDSGVVSLNIWGPGTLVTVSS VL: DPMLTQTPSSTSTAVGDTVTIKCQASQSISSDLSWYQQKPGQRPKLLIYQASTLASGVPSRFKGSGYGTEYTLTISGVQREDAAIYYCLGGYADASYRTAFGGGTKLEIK
Result :: 8.1e-05 s⁻¹
